assay: Caspase-3/7 induction in CHO-K1 cells by small molecules, qHTS cell viability counter screen (AID 1346979); settings: CellTiter-Fluor fluorescence, 17 h; series mostly up to 92.4 µM; also: nearly all actives have a fitted effect of over 35% in size
Results filed as inconclusive are left out. Activity calls are given as the source filed them. Calls follow the shape of the dose curve; as a rule, active = well fitted cell-killing curve with a large enough effect in the repeat runs; inconclusive = weak or mixed curves, or effect the other way; inactive = no such curve, though single readings can be large or run the other way.
Answer with one of the outcomes given here: true (1) = active, false (0) = inactive

S=C=Nc1ccccc1 | false (0)

What outcome does the record of this test show for CC(Cc1ccccc1)N(C)Cc1ccco1 (stereo unspecified) ?
false (0)

What outcome does the record of this test show for C#CC1(O)CCCCC1 ?
false (0)

What outcome does the record of this test show for Cc1c([N+](=O)[O-])cc2c(c1[N+](=O)[O-])C(C)(C)CC2(C)C ?
false (0)

What outcome does the record of this test show for CSC1=N[C@@](C)(c2ccccc2)C(=O)N1Nc1ccccc1 ?
true (1)

What outcome does the record of this test show for CN(C)c1ccc(N)cc1 ?
true (1)

What outcome does the record of this test show for O=c1[nH]c(Cl)c(Cl)cc1Cl ?
false (0)

What outcome does the record of this test show for CN1C2CCC(C)(C)C1CC(OC(=O)C(O)(c1cccs1)c1cccs1)C2 (stereo unspecified) ?
false (0)

What outcome does the record of this test show for [Cl-].[Cl-].[Sn+2] ?
false (0)

What outcome does the record of this test show for N#Cc1ccc(N(CC(N)=O)CC(F)(F)F)cc1C(F)(F)F ?
false (0)

What outcome does the record of this test show for BrCC(Br)(Br)Br ?
false (0)

What outcome does the record of this test show for CC(C)c1c(CN(C)C(C)Cc2ccccc2)n(C)n(-c2ccccc2)c1=O (stereo unspecified) ?
false (0)

What outcome does the record of this test show for CCN(CC)Cc1nccn1-c1ccc([N+](=O)[O-])cc1C(=O)c1ccccc1Cl ?
false (0)
